target entity: human LPA2 (Homo sapiens, UniProt Q9HBW0)
Sequence (Q9HBW0 whole entry): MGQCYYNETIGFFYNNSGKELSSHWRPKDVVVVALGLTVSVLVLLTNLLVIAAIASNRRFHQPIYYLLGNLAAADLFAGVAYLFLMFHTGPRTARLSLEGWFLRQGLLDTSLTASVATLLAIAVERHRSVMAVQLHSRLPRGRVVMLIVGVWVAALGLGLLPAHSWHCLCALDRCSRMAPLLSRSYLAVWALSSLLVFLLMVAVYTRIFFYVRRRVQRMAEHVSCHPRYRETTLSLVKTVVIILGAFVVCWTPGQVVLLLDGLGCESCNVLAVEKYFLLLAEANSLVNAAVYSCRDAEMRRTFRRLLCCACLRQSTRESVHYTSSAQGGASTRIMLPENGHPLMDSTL
run description: GTP[γ35S] binding assay, agonist activity at LPA2
Assay type: biochemical
Set-up: expressed in transfected cells; host or cells: HEK293T cells (membranes)
condition info: LPA = 100
Each entry below carries its reported LPA2 Emax.
Please give only the number in your answer, with no unit.

CCCCCCCC/C=C\CCCCCCCC(=O)N[C@H](CN)COP(=O)(O)O	103.2
CCCCCCCC/C=C\CCCCCCCC(=O)N[C@H](CC)COP(=O)(O)O	92.6
CCCCCCCC/C=C\CCCCCCCC(=O)N[C@H](C)COP(=O)(O)O	95.2
CCCCCCCC/C=C\CCCCCCCC(=O)N[C@@H](CN)COP(=O)(O)O	36.4

Moving on to the next compound.
Which LPA2 Emax is reported for this compound? CCCCCCCC/C=C\CCCCCCCC(=O)N[C@@H](C)COP(=O)(O)O
6.9

* * *

Consider the following molecules and their measured LPA1 Emax readings.
target entity: mouse LPA1 (Mus musculus, UniProt P61793)
Sequence (P61793 whole entry): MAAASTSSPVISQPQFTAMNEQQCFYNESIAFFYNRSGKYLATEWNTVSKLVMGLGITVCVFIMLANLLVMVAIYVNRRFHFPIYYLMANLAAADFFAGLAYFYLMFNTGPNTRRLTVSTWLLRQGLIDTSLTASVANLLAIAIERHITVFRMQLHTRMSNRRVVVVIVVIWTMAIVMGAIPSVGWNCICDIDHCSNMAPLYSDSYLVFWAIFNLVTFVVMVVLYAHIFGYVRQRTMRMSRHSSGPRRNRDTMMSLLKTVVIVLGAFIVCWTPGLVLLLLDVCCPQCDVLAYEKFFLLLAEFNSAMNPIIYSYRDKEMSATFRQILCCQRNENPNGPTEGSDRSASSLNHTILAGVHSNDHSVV
run description: GTP[γ35S] binding assay, agonist activity at LPA1
Format: biochemical
Design: expressed in transfected cells; host or cells: HEK293T cells (membranes)
condition info: LPA = 100
Give the value as a plain number.

Past entries and their recorded results:
CCCCCCCC/C=C\CCCCCCCC(=O)N[C@@H](C)COP(=O)(O)O [VPC12101]	48.1
CCCCCCCC/C=C\CCCCCCCC(=O)N[C@H](C)COP(=O)(O)O [VPC12086]	107.6
CCCCCCCC/C=C\CCCCCCCC(=O)N[C@H](CN)COP(=O)(O)O [VPC12178]	98.7

Given CCCCCCCC/C=C\CCCCCCCC(=O)N[C@H](CC)COP(=O)(O)O [VPC12109] , state its recorded LPA1 Emax.
66.8

Given the entry CCCCCCCC/C=C\CCCCCCCC(=O)N[C@@H](CN)COP(=O)(O)O [Compound 12048] , report its measured LPA1 Emax.
9.4

* * *

Entries and their measured pKi follow.
target entity: LPA1 receptor (Mus musculus, UniProt P61793)
Construct: expressed in transfected cells; host or cells: HEK293T cells (membranes)
Sequence (P61793 whole entry): as above
run description: antagonism of LPA-evoked GTP[γ35S] binding at LPA1
Assay type: biochemical
condition info: determined by Schild regression
As a rule, pKi stands for the negative log10 of the concentration, concentration in M.

Worked examples follow.
CCCCCCCC/C=C\CCCCCCCC(=O)N[C@@H](COP(=O)(O)O)Cc1ccc(OCc2cc(OCC)ccn2)cc1 [Compound 57h]	7.59
CCCCCCCCC=CCCCCCCCC(=O)NC(COP(=O)(O)O)Cc1ccc(OCc2cc(OCC(F)(F)F)ccn2)cc1 (stereo not shown) [Compound 57i]	7.72
CCCCCCCC/C=C\CCCCCCCC(=O)N[C@@H](COP(=O)(O)O)Cc1ccc(OCc2ncc(C)c(OC)c2C)cc1 [Compound 57l]	7.55

Now look at this one.
Field: pKi (LPA1 receptor (Mus musculus, UniProt P61793)). Entry: CCCCCCCC/C=C\CCCCCCCC(=O)N[C@@H](COP(=O)(O)O)Cc1ccc(OCc2cc(OCCC)ccn2)cc1 [Compound 57j]
7.19

* * *

Each item that follows carries a reported LPA3 Emax.
target entity: human LPA3 (Homo sapiens)
Sequence (Q9UBY5 1-353): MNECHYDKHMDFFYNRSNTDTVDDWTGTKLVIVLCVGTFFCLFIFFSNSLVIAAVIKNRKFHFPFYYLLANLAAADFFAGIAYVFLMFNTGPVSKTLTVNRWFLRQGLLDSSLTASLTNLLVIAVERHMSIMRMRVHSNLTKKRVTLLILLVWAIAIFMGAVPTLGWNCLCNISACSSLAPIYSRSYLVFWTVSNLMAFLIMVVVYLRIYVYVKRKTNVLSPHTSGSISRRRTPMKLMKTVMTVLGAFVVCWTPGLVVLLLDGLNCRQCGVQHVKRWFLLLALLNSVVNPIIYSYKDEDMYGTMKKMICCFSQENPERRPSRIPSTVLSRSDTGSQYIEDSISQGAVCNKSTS
run description: GTP[γ35S] binding assay, agonist activity at LPA3
Assay type: biochemical
Set-up: expressed in transfected cells; host or cells: HEK293T cells (membranes)
condition info: LPA = 100
Output: the number by itself.

CCCCCCCC/C=C\CCCCCCCC(=O)N[C@H](CN)COP(=O)(O)O	102.9
CCCCCCCC/C=C\CCCCCCCC(=O)N[C@H](CC)COP(=O)(O)O	83.5
CCCCCCCC/C=C\CCCCCCCC(=O)N[C@H](C)COP(=O)(O)O	93.4
CCCCCCCC/C=C\CCCCCCCC(=O)N[C@@H](C)COP(=O)(O)O	9.7

Given the molecule CCCCCCCC/C=C\CCCCCCCC(=O)N[C@@H](CN)COP(=O)(O)O , what is its reported LPA3 Emax?
3.8
